Hello, the source for this data is the NIST ThermoML archive (doi:10.1016/j.jct.2013.01.005), in case you need it.

- test name: activity coefficient (dimensionless); of the first substance listed, at infinite dilution; xn = mol fraction of the nth substance listed
- reported conditions: 308.15 K; 101 kPa; Liquid; Chromatography; x1 = 0
Class membership depends on activity coefficient alone; the intervals are lo = under 3, med = from 3 up to 8, hi = 8 and over

- molecule: "C#CCCCCCC [1-octyne] + CCCCC[N+]1(C)CCCCC1.O=S(=O)([N-]S(=O)(=O)C(F)(F)F)C(F)(F)F"
  assigned class: "med"
- molecule: "C#CCCCCCC [1-octyne] + CCCCCC[N+]1(C)CCCCC1.O=S(=O)([N-]S(=O)(=O)C(F)(F)F)C(F)(F)F"
  assigned class: "med"
- molecule: "CCCCCCCCC [nonane] + CCCCCC[N+]1(C)CCCCC1.O=S(=O)([N-]S(=O)(=O)C(F)(F)F)C(F)(F)F"
  assigned class: "hi"
- molecule: "C1CCCCC1 [cyclohexane] + CCCCC[N+]1(C)CCCCC1.O=S(=O)([N-]S(=O)(=O)C(F)(F)F)C(F)(F)F"
  assigned class: "med"

Dear colleague, I would appreciate it if you could identify the bin for C=CCCCC [hex-1-ene] + CCCCCC[N+]1(C)CCCCC1.O=S(=O)([N-]S(=O)(=O)C(F)(F)F)C(F)(F)F and reply at your convenience.
med

Quick one: CCCOCCC [dipropyl ether] + CCCCCC[N+]1(C)CCCCC1.O=S(=O)([N-]S(=O)(=O)C(F)(F)F)C(F)(F)F
med

Quick one: C#CCCC [1-pentyne] + CCCCCC[N+]1(C)CCCCC1.O=S(=O)([N-]S(=O)(=O)C(F)(F)F)C(F)(F)F
lo

Quick one: C=CCCCCCCCC [1-decene] + CCCCCC[N+]1(C)CCCCC1.O=S(=O)([N-]S(=O)(=O)C(F)(F)F)C(F)(F)F
hi

Quick one: CCCC(C)=O [pentan-2-one] + CCCCCC[N+]1(C)CCCCC1.O=S(=O)([N-]S(=O)(=O)C(F)(F)F)C(F)(F)F
lo

Quick one: CC(C)CC(C)(C)C [2,2,4-trimethylpentane] + CCCCCC[N+]1(C)CCCCC1.O=S(=O)([N-]S(=O)(=O)C(F)(F)F)C(F)(F)F
hi

Quick one: c1ccccc1 [benzene] + CCCCCC[N+]1(C)CCCCC1.O=S(=O)([N-]S(=O)(=O)C(F)(F)F)C(F)(F)F
lo

Quick one: CCCCCCCC [octane] + CCCCC[N+]1(C)CCCCC1.O=S(=O)([N-]S(=O)(=O)C(F)(F)F)C(F)(F)F
hi

Quick one: C1CCOC1 [tetrahydrofuran] + CCCCC[N+]1(C)CCCCC1.O=S(=O)([N-]S(=O)(=O)C(F)(F)F)C(F)(F)F
lo
